# measurement_target: T1, recombinantly expressed purified soluble WNV E protein (truncated form, strain 382-99) (West Nile virus strain 382-99, UniProt Q9Q6P4 291-696)
# T1 construct: also called recombinant WNV-E protein; truncated E protein
# T1 sequence: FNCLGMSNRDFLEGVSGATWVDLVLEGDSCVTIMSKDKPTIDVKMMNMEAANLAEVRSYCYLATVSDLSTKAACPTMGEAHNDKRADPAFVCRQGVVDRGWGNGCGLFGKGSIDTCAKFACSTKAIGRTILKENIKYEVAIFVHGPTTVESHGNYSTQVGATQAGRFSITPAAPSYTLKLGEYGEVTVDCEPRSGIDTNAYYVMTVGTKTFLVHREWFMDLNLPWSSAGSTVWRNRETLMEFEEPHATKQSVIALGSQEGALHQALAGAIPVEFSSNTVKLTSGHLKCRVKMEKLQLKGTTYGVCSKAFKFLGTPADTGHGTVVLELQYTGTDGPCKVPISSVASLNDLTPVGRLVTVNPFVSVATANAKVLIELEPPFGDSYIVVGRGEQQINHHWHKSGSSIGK
# assay_name: phage ELISA on coated recombinant soluble WNV E protein
attribute_measured: OD 492 nm (OD)
Answers are plain numbers, in OD.

Consider the following illustrative entries.
binder	attribute_measured	measured
SC04-289 (scFv) scFv: QMQLVQSGAEVKKPGESLRISCKGSGYSFTSNWITWVRQMPGKGLEWMGRIDPSDSYTNYSPSFQGHVTISADKSISTAYLQWSSLKASDTAMYYCARDVVGVGASDYYYYMDVWGKGTTVTVSSGTGGSGGTGSGTGGSTEIVLTQSPGTLSLSPGETATLSCRTSQSVSSSYLGWYQQKPGQAPRLLIYGASIRATGIPARFSGSGSGTEFTLTIDSLQSEDFAVYYCQQYNNWPPITFGQGTRLEIKR	OD 492 nm	1.39
SC04-353 (scFv) scFv: EVQLVQSGGGVVQPGRSLRLSCAASGFTFSNYAMHWVRQAPGKGLEWVAVISYDGGNKYYADSVKGRFTMSRDNSKNTLYLQMNSLRAEDTAVYYCARDFWSGYSMVDSYYYYMDVWGKGTTVTVSSGTGGSGGTGSGTGGSTETTLTQSPGTLSLSPGERATLSCRASQSVSNTFLAWYQQKPGQAPRLLIYGASSRATGIPDRFSGSGSGTDFTLTISRLEPEDFAAYYCQQYGSSLTFGPGTKVDIKR	OD 492 nm	0.099

Consider the record given below.
Challenge: Item SC04-361 (scFv) scFv: EVQLVQSGAEVKKPGESLKISCKASGFSFSTYWIGWVRQMPGKGLEWMGIIYPADSDTRYSPSFQGQVTISADKSISTAYLQWSSLKASDTAMYYCARLRGPYYDFWNGYRETHDAFNVWGQGTMVTVSSGTGGSGGTGSGTGGSTDVVMTQSPDSLAVSLGERATINCKSSQNILDNSDNKNFLAWYQQKPGQPPKLLIYWASARESGVPDRFSGSGSGTDFTLTISSLQAEDVALYYCQQYYNTPITFGQGTRLEIKR has what recorded OD 492 nm?
Response given: 0.076
